System: c-Src
Assay comment: phosphorylation enrichment, bacterial display (enrichment ratio); higher = better substrate or ligand; peptides without Tyr show the background;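 also: 11-residue human phosphosite peptides and single-mutation variants displayed on the E. coli surface, counted by deep sequencing, each peptide's frequency after selection divided by its frequency in the unselected input library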;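 also: frequency after pTyr selection over input frequency; kinase dosed for 20-30% of maximal phosphorylation in three min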
Listed here are sequences together with their documented phosphorylation enrichment.

Here's what some known entries look like.
1. HCHEGYILHGA [SVEP1_Y2921] :: 1.12
2. VSFDEYRFRSV [CFTR_Y515_YF] :: 0.614
3. MIRSAYALGGL [CPS1_Y590] :: 0.384
4. WYQTKYEELQV [KRT6B_Y360_I365V] :: 0.452
5. SIDLGYHKDLQ [NF1_Y1169_G1166D] :: 0.552

Quick note, phosphorylation enrichment for GRVFVYRLSEQ [ITGAE_Y551_YF] landed at 0.585

Quick note, phosphorylation enrichment for QEALEYFMKQM [PIK3CA_Y1038] landed at 0.675

###

System: Fer (mouse)
Assay comment: phosphorylation enrichment, bacterial display (enrichment ratio); higher = better substrate or ligand; peptides without Tyr show the background
Measure: phosphorylation enrichment
Respond numerically, and do not add a unit to the figure.

Here's what some known entries look like.
1) CNRADYSKLAS [GNE_Y22_P27S] :: 0.398
2) GFPVRYTDVSN [DNMT3B_Y815_H814R] :: 0.398
3) PPPPAYDDVAQ [TNK2_Y635] :: 0.547

Quick note, phosphorylation enrichment for ATDLAYFLVRE [ASL_Y375_K380E_YF] landed at 0.797

Quick note, phosphorylation enrichment for RLPSGYGLAYR [DLK1_Y262] landed at 0.418

Quick note, phosphorylation enrichment for STEAIYWRYSK [SH3PXD2B_Y42_R43W] landed at 0.502

Quick note, phosphorylation enrichment for VDASFCGGRGV [ANTXR2_Y381_Y381C_YF] landed at 0.49

Quick note, phosphorylation enrichment for RHYVYYYSYLL [PTEN_Y177_R173H] landed at 1.37

Quick note, phosphorylation enrichment for QMIETYFDFRV [NSMF_Y506_L511V] landed at 0.679

Quick note, phosphorylation enrichment for RFLTRYIFNRE [HLA-DQB1_Y62_V59L_YF] landed at 0.897

Quick note, phosphorylation enrichment for SRIWVYNHYRW [BRCA2_Y2621] landed at 0.396

###

Tgt: Fes (UniProt P07332)
Sequence (P07332 whole entry, looked up): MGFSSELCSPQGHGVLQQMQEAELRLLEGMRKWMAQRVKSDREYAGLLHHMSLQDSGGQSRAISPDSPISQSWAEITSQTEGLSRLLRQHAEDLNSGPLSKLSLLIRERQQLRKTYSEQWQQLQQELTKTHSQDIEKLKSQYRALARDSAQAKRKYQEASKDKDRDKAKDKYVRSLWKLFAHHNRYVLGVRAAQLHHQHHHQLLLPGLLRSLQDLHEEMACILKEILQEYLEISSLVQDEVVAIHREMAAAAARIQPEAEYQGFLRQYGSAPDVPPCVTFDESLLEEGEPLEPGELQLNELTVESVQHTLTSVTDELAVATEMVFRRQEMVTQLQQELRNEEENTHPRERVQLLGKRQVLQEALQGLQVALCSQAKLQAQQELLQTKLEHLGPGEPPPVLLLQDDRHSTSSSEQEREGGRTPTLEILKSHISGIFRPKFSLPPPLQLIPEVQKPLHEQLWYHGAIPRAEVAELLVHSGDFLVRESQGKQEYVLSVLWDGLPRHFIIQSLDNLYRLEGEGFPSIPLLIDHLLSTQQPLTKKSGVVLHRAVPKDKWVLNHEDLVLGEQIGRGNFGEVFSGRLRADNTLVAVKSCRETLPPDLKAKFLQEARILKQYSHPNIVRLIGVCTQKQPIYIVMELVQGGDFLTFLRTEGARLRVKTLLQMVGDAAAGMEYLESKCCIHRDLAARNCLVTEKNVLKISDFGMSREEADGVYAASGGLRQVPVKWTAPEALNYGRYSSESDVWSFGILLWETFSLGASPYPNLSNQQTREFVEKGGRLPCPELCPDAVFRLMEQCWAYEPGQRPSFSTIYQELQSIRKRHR
Assay comment: phosphorylation enrichment, bacterial display (enrichment ratio); higher = better substrate or ligand; peptides without Tyr show the background
Measure: phosphorylation enrichment
Respond numerically, and do not add a unit to the figure.

1) FSLIHYASIVD [MYH7_Y582_G584S] :: 1.29
2) SRIWVYNHYRW [BRCA2_Y2621] :: 1.59
3) FQNSLYAPDYS [FAM92A_Y226_R222Q] :: 1.07
4) IDPFTYTPFGS [CYP3A4_Y432_I431T_YF] :: 0.851
5) TVQVAYFTVMM [SPATA17_Y83_M86V_YF] :: 1.55

Now turn to the next sequence.
Quick note, phosphorylation enrichment for SVTCTYSPARN [TP53_Y126_L130R] landed at 1.37

###

Test system: c-Src
Assay comment: phosphorylation enrichment, bacterial display (enrichment ratio); higher = better substrate or ligand; peptides without Tyr show the background
# phosphorylation enrichment >= 0.5 gives YES, anything below gives NO

Solved entries (count: 10):
1) VHNLDYFKKTT [FGFR3_Y647_YF] :: YES
2) ALKKPYSVLYK [RPF2_Y59_G60S] :: NO
3) NVSILYTASQA [CTNNA1_Y222_P219S] :: YES
4) LMLVLYGRIFL [HTR1A_Y215_R220L] :: YES
5) PESILYRKFTT [NTRK1_Y701] :: YES
6) FEEVVYQAMEE [TACC3_Y684] :: YES
7) GPQGFYSNKLV [PTPN14_Y506_V505F] :: NO
8) REEKNYKHKET [BCLAF1_Y459_L461H] :: YES
9) VIVRMYDFHVL [RPF2_Y109_G106V_YF] :: NO
10) TFEYRYLEDQD [CNOT3_Y746_R750Q] :: YES

Input: Is phosphorylation enrichment for RSSKMYPKTRS [LPL_Y329_L330P] at or above 0.5?
Output: YES

Input: Is phosphorylation enrichment for SLGKGYSDGGC [MC4R_Y35] at or above 0.5?
Output: NO

Input: Is phosphorylation enrichment for VVAHQYSFAPD [TNS3_Y601] at or above 0.5?
Output: NO

Input: Is phosphorylation enrichment for AVLSLYASDRT [ACTA1_Y145_G148D] at or above 0.5?
Output: NO
